Entries annotated with measured pIC50
testedSystem: rat GPR14 (U-II receptor) (Rattus norvegicus)
Sequence (P49684 whole entry): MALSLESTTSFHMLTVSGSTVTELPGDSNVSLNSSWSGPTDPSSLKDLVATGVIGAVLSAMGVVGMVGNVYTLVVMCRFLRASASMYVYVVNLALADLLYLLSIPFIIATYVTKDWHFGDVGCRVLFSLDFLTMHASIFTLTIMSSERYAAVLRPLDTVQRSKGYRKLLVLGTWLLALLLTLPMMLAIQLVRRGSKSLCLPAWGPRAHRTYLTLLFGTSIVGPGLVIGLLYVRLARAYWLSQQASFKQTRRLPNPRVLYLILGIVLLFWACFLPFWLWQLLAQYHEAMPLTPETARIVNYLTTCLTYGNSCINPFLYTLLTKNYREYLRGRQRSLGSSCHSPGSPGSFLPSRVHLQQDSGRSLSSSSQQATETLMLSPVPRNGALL
assayRemarks: Rat UII Calcium Mobilization FLIPR Assay
experimentalContext: CHO cells transfected with rat GPR14; antagonist activity after 5 min incubation vs agonist (Ac)-CFWK(2-NaI)C-NH2 at 1 nM
pIC50: −log10 of the molar value.
reportedProperty: pIC50

1. COc1ccc([C@@H](CCCN(C)S(=O)(=O)c2cccs2)N2Cc3c(cccc3N3CCN(C)CC3)C2=O)cc1OC [Cpd 26]: 7.80
2. COc1ccc([C@@H](CCCNC(=O)c2cnoc2C)N2Cc3c(cccc3N3CCN(C(C)c4ccccc4)CC3)C2=O)cc1OC (stereo partly shown) [Cpd 85]: 8.22
3. COc1ccc([C@@H](CCCN(C)S(=O)(=O)c2cccs2)N2Cc3c(cccc3N3CCN(C(C)C)CC3)C2=O)cc1OC [Cpd 8]: 8.70
